Listed here: compounds with reported IC50 for human full length PDE3A (Homo sapiens (Human), UniProt Q14432).
recordedMetric: IC50 (nM)

Worked set:
Cc1cc(-c2ccc(C3=NNC(=O)OC3)cc2F)ccc1F | 84
COC/C=C/c1ccc(C2=NNC(=O)OC2)cc1C(F)(F)F | 58
Cc1ccccc1-c1ccc(C2=NNC(=O)OC2)cc1F | 130
Cc1nc2cc(-c3ccc(C4=NNC(=O)OC4)cc3C(F)(F)F)ccc2s1 | 56
CCn1cc(-c2ccc(C3=NNC(=O)OC3)cc2C(F)(F)F)cn1 | 32
Cc1cnccc1-c1ccc(C2=NNC(=O)O[C@H]2C)cc1C(F)(F)F | 200
CC1CC(C)N1c1ccc(C2=NNC(=O)OC2)cc1C(F)(F)F (racemic) | 74
Cc1n[nH]cc1-c1ccc(C2=NNC(=O)OC2)cc1C(F)(F)F | 27
Cc1ccncc1-c1ccc(C2=NNC(=O)O[C@H]2C)cc1C(F)(F)F | 220
COc1nc(C)ccc1-c1ccc(C2=NNC(=O)OC2)cc1C(F)(F)F | 580

a = O=C1NN=C(c2ccc(NC3CCCC3)c(C(F)(F)F)c2)CO1
b = Nc1cc(-c2ccc(C3=NNC(=O)OC3)cc2C(F)(F)F)c(F)cc1F
Two entries are listed, a and b . Which one carries the higher IC50? Write down the label of the entry you select. b
